# Tested on: NCI-H460 lung
# METHOD: NCI tumour cell line growth inhibition, 48 h
ASSAY METRIC: TGI

CC1CCC2(OCCO2)[C@]2(C)CC(O)C(=O)C=C12 (some centres not stated) | > 100 µM
Cc1nn(C(=O)c2ccccc2O)c2c1C(c1ccc3ccccc3c1O)SC(N)=N2 (configuration not stated) | > 10 µM
CCn1cc(C(=O)O)c(=O)c2cc(F)c(N3CCN(CN4C(=O)/C(=N\c5ncc(Cc6cc(OC)c(OC)c(OC)c6)c(N)n5)c5cc(Cl)ccc54)CC3)cc21 | > 100 µM
COC(=O)CN(CC1O[C@@H]2OC(C)(C)O[C@@H]2C1N=[N+]=[N-])C(=O)OCc1ccccc1 (some centres not stated) | > 100 µM
Cc1cnc(-n2c(C)nc3cc(Cl)ccc3c2=O)s1 | > 100 µM

Quick batch: TGI for everything below.
1. O/N=C1/C(=C/c2ccc(Cl)c(Cl)c2)CCCC1C(NO)c1ccc(Cl)c(Cl)c1 (configuration not stated)
2. CC(C)OC(=O)[C@@H]1OC(C)(C)O[C@H]1C(=O)OC(C)C
3. COc1cc(OC)c2c(c1)C(=O)C(CC1(C)OCCCO1)=CC2=O

RESULT:
40 µM
> 100 µM
34.7 µM

Quick batch: TGI for everything below.
1. NCCCCCCCCCCn1c2c(c3ccccc3c1=O)C(=O)c1ccccc1-2
2. CC#CC#C/C=C1/O[C@]2(CCC(OC(=O)CC(C)C)CO2)[C@@H]2O[C@H]12 (some centres not stated)
3. COc1ccc(/C=C/C(=O)c2cc3c(N)c(C(=O)Nc4cccc(Cl)c4C)sc3nc2C)cc1
4. CCOC(=O)C1CCCCN1C(=O)OCc1ccccc1 (configuration not stated)
5. CC(=O)Oc1c(-c2ccccc2)oc2ccccc12

RESULT:
18.5 µM
> 100 µM
5.04 µM
> 100 µM
2.44 µM

Quick batch: TGI for everything below.
1. Clc1ccc2c(c1)C(Br)c1cc(Cl)cc(Cl)c1-2 (configuration not stated)
2. O=C1C=CC(=O)c2cc3cc(CO)ccc3cc21
3. O=C1OC(O)c2cc3c(cc21)OCO3 (configuration not stated)
4. CC(C)=CCC/C(C)=C/CC/C(C)=C/CC/C(C)=C/CSC[C@H](NC(=O)CCCCCN1CCN(C)CC1)C(=O)NC1CCCCC1
5. Clc1cccc(Cl)c1C1SCc2nc3ccccc3n21 (configuration not stated)
6. COc1cc2ccnc(C=O)c2cc1OC
7. COC1/C=C\C=C(/C)C(=O)NC2=CC(=O)C(N)=C(CC(C)CC(OC)C(O)C(C)C=C(C)C1OC(N)=O)C2=O (configuration not stated)
8. Cc1ccc(O)c(-c2cc(-c3cccc(Br)c3)on2)c1

RESULT:
> 100 µM
39.8 µM
> 100 µM
3.73 µM
> 100 µM
> 100 µM
> 54.7 µM
> 100 µM

QUERY: Which TGI value is on record for CNCCCCN(C)/[N+]([O-])=N\O ?
RESULT: > 100 µM

---

# System: MALME-3M melanoma
# METHOD: NCI tumour cell line growth inhibition, 48 h
Could you please report measured GI50 for the items listed next?

Worked cases, GI50 given:
O=C(/C=C/c1ccc(Cl)cc1)c1ccc(Nc2nc(Nc3ccc(F)cc3)nc(Nc3ccc(F)cc3)n2)cc1 | > 100 µM
CC(C)=[CH][Sb]([Br])([CH]=C(C)C)([CH]=C(C)C)[c]1ccccc1 | 6.07 µM
NC1CCCCC1N.Nc1c(N=Nc2ccc(-c3ccc(N=Nc4cc(S(=O)(=O)[O-])c5ccccc5c4N)cc3)cc2)cc(S(=O)(=O)[O-])c2ccccc12.[OH3+].[OH3+].[Pt+4] | 15.4 µM

Now take the following compound into account.
QUERY: Which GI50 value is on record for O=C(Nc1nc(-c2ccc(Cl)cc2)cs1)c1cc(-c2ccc(Br)cc2)nc2ccc(Cl)cc12 ?
RESULT: 5.59 µM
